System: MALME-3M melanoma
run.description: NCI tumour cell line growth inhibition, 48 h
Let's look at some compounds and their measured GI50.

compound: Cn1cc(-c2cnn3c(N)c(Br)c(C4CCCNC4)nc23)cn1 (stereo not given)
GI50: 6.11 µM

Query string: Provide one value: measured GI50 of Cn1c2c(c3c(Cl)nncc31)Cc1ccccc1-2
Result string: 24.9 µM

Query string: Provide one value: measured GI50 of C#CCN(c1ccc(C(=O)N[C@@H](CCC(=O)N[C@H](CCC(=O)O)C(=O)O)C(=O)O)cc1)C1CCc2cc3nc(CO)[nH]c(=O)c3cc21 (stereo not given in full)
Result string: > 100 µM

Query string: Provide one value: measured GI50 of CCOc1ccn(-c2ccc(F)cc2)c(=O)c1C(=O)Nc1ccc(Oc2ccnc(N)c2Cl)c(F)c1
Result string: 7.72 µM

Query string: Provide one value: measured GI50 of Cc1cc(Nc2nc(N[C@@H](C)c3ncc(F)cn3)ncc2Cl)n[nH]1
Result string: 47.1 µM

---

Tested on: IGROV1 ovarian
run.description: NCI tumour cell line growth inhibition, 48 h
Let's look at some compounds and their measured TGI.

Past entries and their recorded results:
compound: CC1=C(O)c2ccccc2C(=O)C1=O
TGI: > 100 µM

compound: Cc1cc(=O)n(-c2cc3cccccc-3n2)[nH]1
TGI: 8.45 µM

compound: CN(/N=C/c1ccnc2ccccc12)c1c([N+](=O)[O-])cc([N+](=O)[O-])cc1[N+](=O)[O-]
TGI: > 100 µM

compound: N#Cc1cnc(Nc2cc(NC[C@H]3CNCCO3)c(C(F)(F)F)cn2)cn1
TGI: 70.6 µM

compound: CCCCCCCCCOCC(COP(=O)([O-])OCC[N+](C)(C)C)OC (stereo not given)
TGI: > 100 µM

compound: O=C(/C=C/c1ccccc1)Nc1ccccc1SCCCCl
TGI: > 51.5 µM

compound: CCCCCCCC/C=C/CCCCCCCC1=NC(C)(C)CN1CCO
TGI: 2.9 µM

compound: COc1cc(C2c3cc4c(cc3C(OC(=O)C[n+]3ccccc3)C3COC(=O)C23)OCO4)cc(OC)c1OC (stereo not given)
TGI: > 100 µM

Query string: Provide one value: measured TGI of CC(=O)c1ccc2c(c1)CC1(C2)Cc2cc3c(c(C(=O)O)c2C1)CCC3 (stereo not given)
Result string: > 100 µM

Query string: Provide one value: measured TGI of O=[N+]([O-])c1ccc(-n2nc3ccc4c(no[n+]4[O-])c3n2)cc1
Result string: > 100 µM

---

Test system: T-47D breast
run.description: NCI tumour cell line growth inhibition, 48 h
property.label: TGI (µM)
Just the number please, in µM, no unit attached.

compound: C=C(C(=O)OC)[C@@H]1C[C@@H](OC(C)=O)C2=C[C@H](C[C@@]3(C)O[C@@H]3C3=CC(C)=C(O3)[C@H]1OC(C)=O)OC2=O
unit.symbol: µM
TGI: 33.8

compound: Oc1c(Cl)cc(Cl)c2ccc(Cn3cc(-c4ccc(C(F)(F)F)cc4)nn3)nc12
unit.symbol: µM
TGI: 5.59

compound: CCNC(=O)Oc1ccc(/C(=C(/C)Cc2ccc(OC)cc2)c2ccc(OCCN(CC)CC)cc2)cc1
unit.symbol: µM
TGI: 4.23

compound: CC(=O)[C@H]1CCC/C=C/[C@@H]2C[C@H](O)C[C@H]2[C@H](O)/C=C/C(=O)O1
unit.symbol: µM
TGI: 3.63

compound: CCOc1ccn(-c2ccc(F)cc2)c(=O)c1C(=O)Nc1ccc(Oc2ccnc(N)c2Cl)c(F)c1
unit.symbol: µM
TGI: 98

API: the following record is the query input.
Query string: Provide one value: measured TGI of CC1=CC[C@@]2(C)CC[C@](O)(C(C)C)C2C(OC(=O)c2ccccc2)C1 (some centres undefined)
Result string: 42.6

---

Test system: MALME-3M melanoma
run.description: NCI tumour cell line growth inhibition, 48 h
property.label: TGI

Query string: Provide one value: measured TGI of COc1cc(OC)cc(-c2cc(=O)c3cc4c(cc3[nH]2)OCO4)c1
Result string: > 100 µM

Query string: Provide one value: measured TGI of CCNC(=O)OCc1c(COC(=O)NCC)c(-c2ccc(Cl)c(Cl)c2)n2c1CCC2
Result string: 30.7 µM

Query string: Provide one value: measured TGI of Cc1ccc2nc(C(C)C)c(=O)[nH]c2c1
Result string: > 100 µM

Query string: Provide one value: measured TGI of COc1cc(C2c3cc4c(cc3C(OC(=O)C[n+]3ccccc3)C3COC(=O)C23)OCO4)cc(OC)c1OC (stereo unspecified)
Result string: > 100 µM

Query string: Provide one value: measured TGI of Cc1cc(Nc2nc(N[C@@H](C)c3ncc(F)cn3)ncc2Cl)n[nH]1
Result string: > 100 µM

Query string: Provide one value: measured TGI of CC(C)=CCCC(C)CCOS(=O)C(F)(F)F (stereo unspecified)
Result string: 18.9 µM

---

System: K-562 leukemia
run.description: NCI tumour cell line growth inhibition, 48 h
property.label: TGI

Past entries and their recorded results:
molecule: CC(C)C1NC(=O)CC(c2ccccc2)N(N=O)C1c1ccccc1 (stereo not given)
TGI: > 100 µM
--
molecule: C#CCN(c1ccc(C(=O)N[C@@H](CCC(=O)N[C@H](CCC(=O)O)C(=O)O)C(=O)O)cc1)C1CCc2cc3nc(CO)[nH]c(=O)c3cc21 (stereo not given in full)
TGI: > 100 µM
--
molecule: Cc1cccc2sc(-c3ccc(O)cc3)nc12
TGI: > 100 µM
--
molecule: CCCc1cc(COC)c(C#N)c(=O)[nH]1
TGI: > 100 µM
--
molecule: CC(C)=CCC[C@@H](C)C1=C(O)C(Nc2ccccc2Cl)=C(C)C(=O)C1=O
TGI: > 75 µM
--
molecule: CCOP(=O)(OCC)C(NC(=O)C(C(F)(F)F)C(F)(F)F)c1ccccc1 (stereo not given)
TGI: > 100 µM
--
molecule: CN(/N=C/c1ccnc2ccccc12)c1c([N+](=O)[O-])cc([N+](=O)[O-])cc1[N+](=O)[O-]
TGI: > 100 µM
--
molecule: O=C(/C=C/c1cccc([N+](=O)[O-])c1)c1ccc([N+](=O)[O-])cc1
TGI: > 100 µM
--
molecule: COc1cccc(Nc2nc3ccccc3c3occc23)c1
TGI: > 100 µM
--
molecule: CC(=O)N1N=C(c2ccc(Nc3nc(Nc4ccc(F)cc4)nc(Nc4ccc(F)cc4)n3)cc2)CC1c1ccc(N(C)C)cc1 (stereo not given)
TGI: 7.31 µM

Query string: Provide one value: measured TGI of C=C1C(=O)O[C@H]2C1C[C@@H](OC(C)=O)/C(C)=C/CC[C@@]1(C)O[C@H]21 (stereo not given in full)
Result string: 39.5 µM

---

Let's look at some compounds and their measured TGI.
Test system: SK-MEL-28 melanoma
run.description: NCI tumour cell line growth inhibition, 48 h

Past entries and their recorded results:
compound: CC(=O)NCC1OC2COC(c3ccccc3)OC2C(NC(=O)c2ccccc2)C1OC(=O)c1ccccc1 (centres undefined)
TGI: > 100 µM

compound: COC1OC2COC(C)(C)OC2C(OC(C)=O)C1NC(=O)N(CCCl)N=O (centres undefined)
TGI: > 100 µM

compound: Oc1c(Cl)cc(Cl)c2ccc(Cn3cc(-c4ccc(C(F)(F)F)cc4)nn3)nc12
TGI: 3.76 µM

compound: COc1cc(C2(c3ncc[nH]3)SSSCC2O)ccc1O (centres undefined)
TGI: > 100 µM

compound: CC(=O)N1N=C(c2ccc(Nc3nc(Nc4ccc(F)cc4)nc(Nc4ccc(F)cc4)n3)cc2)CC1c1ccc(N(C)C)cc1 (centres undefined)
TGI: 19.3 µM

Query string: Provide one value: measured TGI of CC1=C(O)c2ccccc2C(=O)C1=O
Result string: > 100 µM

Query string: Provide one value: measured TGI of CSCSCC(CO)NC(=O)/C(C)=C\c1c(C)[nH]c(=O)[nH]c1=O (centres undefined)
Result string: > 250 µM

---

Tested on: T-47D breast
run.description: NCI tumour cell line growth inhibition, 48 h
property.label: GI50

Past entries and their recorded results:
compound: C/C(=C(\c1ccc(OCCN2CCCCCC2)cc1)c1ccc(OC(=O)c2ccccc2)cc1)c1ccc(Cl)cc1
tgt: T-47D breast
GI50: 1.76 µM
--
compound: CC[C@@H](C)/C=C(C)/C=C/C(=O)c1c(O)c(-c2ccc(O)cc2)cn(O)c1=O
tgt: T-47D breast
GI50: 0.609 µM
--
compound: CN1CCN(Cc2ccc(NC(=O)c3cncc(C#Cc4cnc(N)c5cccnc45)c3)cc2C(F)(F)F)CC1
tgt: T-47D breast
GI50: 0.36 µM
--
compound: COC(=O)c1oc2c(C(=O)/C=C/c3ccc(OC)cc3)c(OCCN(C)C)ccc2c1C
tgt: T-47D breast
GI50: 3.1 µM
--
compound: Cc1cn(Cc2ccc(C34CC5CC(CC(C5)C3)C4)c(O)c2)c(=O)[nH]c1=O
tgt: T-47D breast
GI50: 6.45 µM

Query string: Provide one value: measured GI50 of CCCCCCCCCCCCOC1C(CNC(=O)C2OC3OC(C)(C)OC3C2NC(=O)CN2CCN(c3ccc(OC)cc3)CC2)OC2OC(C)(C)OC21 (stereo not given)
Result string: 4.33 µM

Query string: Provide one value: measured GI50 of COc1cccc(Nc2nc3ccccc3c3occc23)c1
Result string: 4.1 µM

Query string: Provide one value: measured GI50 of CC(=O)N1N=C(c2ccc(Nc3nc(Nc4ccc(F)cc4)nc(Nc4ccc(F)cc4)n3)cc2)CC1c1ccc(N(C)C)cc1 (stereo not given)
Result string: 4.5 µM

Query string: Provide one value: measured GI50 of Cc1cc(Nc2nc(N[C@@H](C)c3ncc(F)cn3)ncc2Cl)n[nH]1
Result string: 22.8 µM

Query string: Provide one value: measured GI50 of COc1cc2c(c(OC)c1OC)-c1ccc(SC)c(=O)cc1[C@@H](O)CC2
Result string: > 100 µM

Query string: Provide one value: measured GI50 of CSc1nc2c(c(=O)n1C)CN(C1CCCCC1)C(=O)C(c1ccccc1)N2 (stereo not given)
Result string: 29.3 µM

Query string: Provide one value: measured GI50 of COC(=O)c1cc2c3ccccc3n3c2c(n1)-c1[nH]c2ccccc2c(=O)c1C3
Result string: 58.4 µM

Query string: Provide one value: measured GI50 of Clc1ccccc1-c1nnc2c(Cc3ccccc3)nc3ccccc3n12
Result string: 5.77 µM

Query string: Provide one value: measured GI50 of COc1cc(C2c3cc4c(cc3C(OC(=O)C[n+]3ccccc3)C3COC(=O)C23)OCO4)cc(OC)c1OC (stereo not given)
Result string: 41.2 µM

Query string: Provide one value: measured GI50 of CC(C)COc1nc2c(c(=O)n(C)c(=O)n2C)n1C
Result string: > 100 µM

Cited source: PubChem BioAssay (NCI)
